Target: Tyrosine-protein kinase JAK1 (Homo sapiens, UniProt P23458)
Sequence (P23458 whole entry): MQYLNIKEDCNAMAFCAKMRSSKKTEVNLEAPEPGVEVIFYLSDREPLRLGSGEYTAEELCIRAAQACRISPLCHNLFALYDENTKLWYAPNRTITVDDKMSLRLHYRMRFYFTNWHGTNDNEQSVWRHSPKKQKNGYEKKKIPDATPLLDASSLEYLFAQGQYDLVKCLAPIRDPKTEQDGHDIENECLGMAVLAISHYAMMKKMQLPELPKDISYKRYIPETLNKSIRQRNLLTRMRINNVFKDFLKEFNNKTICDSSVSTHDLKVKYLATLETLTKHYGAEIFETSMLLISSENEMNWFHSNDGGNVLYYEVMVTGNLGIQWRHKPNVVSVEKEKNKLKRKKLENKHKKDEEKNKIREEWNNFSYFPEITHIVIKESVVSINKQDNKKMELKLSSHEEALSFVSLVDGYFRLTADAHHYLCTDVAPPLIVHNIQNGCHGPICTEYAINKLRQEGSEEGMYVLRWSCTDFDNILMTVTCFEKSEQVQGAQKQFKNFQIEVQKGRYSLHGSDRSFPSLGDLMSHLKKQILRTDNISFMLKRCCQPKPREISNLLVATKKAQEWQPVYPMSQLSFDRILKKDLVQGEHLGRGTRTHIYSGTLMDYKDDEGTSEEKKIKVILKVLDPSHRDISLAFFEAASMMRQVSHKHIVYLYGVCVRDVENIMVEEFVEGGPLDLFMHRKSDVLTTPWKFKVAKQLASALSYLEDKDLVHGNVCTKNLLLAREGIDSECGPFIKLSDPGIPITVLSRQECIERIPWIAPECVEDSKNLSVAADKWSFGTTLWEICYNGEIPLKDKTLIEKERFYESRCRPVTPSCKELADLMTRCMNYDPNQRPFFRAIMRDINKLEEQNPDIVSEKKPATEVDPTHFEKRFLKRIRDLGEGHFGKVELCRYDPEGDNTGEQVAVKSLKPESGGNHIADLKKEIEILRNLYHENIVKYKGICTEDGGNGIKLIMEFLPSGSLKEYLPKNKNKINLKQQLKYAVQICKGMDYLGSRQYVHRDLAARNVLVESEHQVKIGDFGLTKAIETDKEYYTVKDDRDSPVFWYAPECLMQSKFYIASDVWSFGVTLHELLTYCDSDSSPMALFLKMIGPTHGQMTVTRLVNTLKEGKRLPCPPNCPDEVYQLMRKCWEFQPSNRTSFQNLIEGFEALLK
Format: cell-based
PROPERTY_NAME: IC50 (nM)
Numbers only, in nM.

Entry `CC[C@@](C)(Nc1ccnc(-c2c[nH]c3ncccc23)n1)C(=O)NCC(F)(F)F` — recorded IC50 = 50

====

Molecular target: Tyrosine-protein kinase JAK2 (Homo sapiens, UniProt O60674)
Sequence (O60674 whole entry): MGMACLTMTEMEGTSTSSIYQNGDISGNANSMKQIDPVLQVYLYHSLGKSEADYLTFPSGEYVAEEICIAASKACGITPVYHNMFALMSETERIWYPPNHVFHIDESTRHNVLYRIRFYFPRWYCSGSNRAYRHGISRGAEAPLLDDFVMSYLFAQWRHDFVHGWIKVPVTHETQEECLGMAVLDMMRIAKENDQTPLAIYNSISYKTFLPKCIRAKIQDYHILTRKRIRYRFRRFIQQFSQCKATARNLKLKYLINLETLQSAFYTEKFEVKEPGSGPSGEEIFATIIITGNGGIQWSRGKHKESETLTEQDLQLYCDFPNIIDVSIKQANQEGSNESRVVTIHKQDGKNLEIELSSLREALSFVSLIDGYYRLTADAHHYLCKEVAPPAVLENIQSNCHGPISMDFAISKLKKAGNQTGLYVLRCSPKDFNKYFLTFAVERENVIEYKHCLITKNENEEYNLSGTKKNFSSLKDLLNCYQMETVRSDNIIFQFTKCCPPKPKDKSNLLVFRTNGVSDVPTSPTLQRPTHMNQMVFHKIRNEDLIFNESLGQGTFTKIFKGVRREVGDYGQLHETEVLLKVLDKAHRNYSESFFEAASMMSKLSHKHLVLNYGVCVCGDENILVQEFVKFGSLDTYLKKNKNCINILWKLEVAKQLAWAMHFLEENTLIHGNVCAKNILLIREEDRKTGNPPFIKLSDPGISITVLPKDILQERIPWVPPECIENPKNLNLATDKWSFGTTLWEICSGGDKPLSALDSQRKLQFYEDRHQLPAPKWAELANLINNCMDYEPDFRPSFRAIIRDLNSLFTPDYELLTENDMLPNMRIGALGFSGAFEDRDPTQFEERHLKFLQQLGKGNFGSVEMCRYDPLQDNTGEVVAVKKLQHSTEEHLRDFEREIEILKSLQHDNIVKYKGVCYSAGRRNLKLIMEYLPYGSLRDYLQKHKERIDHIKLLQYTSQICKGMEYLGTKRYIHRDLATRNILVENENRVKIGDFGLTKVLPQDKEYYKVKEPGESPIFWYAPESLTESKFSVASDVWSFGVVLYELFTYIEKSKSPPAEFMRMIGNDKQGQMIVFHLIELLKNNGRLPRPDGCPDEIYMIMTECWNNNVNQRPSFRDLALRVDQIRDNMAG
Assay type: cell-based, Blood, CD34+ cell
PROPERTY_NAME: IC50

Entry CC[C@@](C)(Nc1ccnc(-c2c[nH]c3ncccc23)n1)C(=O)NCC(F)(F)F [DECERNOTINIB] — recorded IC50 = > 10 µM

====

Molecular target: Tyrosine-protein kinase JAK2 (Homo sapiens, UniProt O60674)
PROPERTY_NAME: Ki (nM)
Give bare numbers, in nM.

Entry `CC[C@@](C)(Nc1ccnc(-c2c[nH]c3ncccc23)n1)C(=O)NCC(F)(F)F` — recorded Ki = 13

====

Target: Tyrosine-protein kinase JAK3 (Mus musculus)
Sequence (Q62137 whole entry): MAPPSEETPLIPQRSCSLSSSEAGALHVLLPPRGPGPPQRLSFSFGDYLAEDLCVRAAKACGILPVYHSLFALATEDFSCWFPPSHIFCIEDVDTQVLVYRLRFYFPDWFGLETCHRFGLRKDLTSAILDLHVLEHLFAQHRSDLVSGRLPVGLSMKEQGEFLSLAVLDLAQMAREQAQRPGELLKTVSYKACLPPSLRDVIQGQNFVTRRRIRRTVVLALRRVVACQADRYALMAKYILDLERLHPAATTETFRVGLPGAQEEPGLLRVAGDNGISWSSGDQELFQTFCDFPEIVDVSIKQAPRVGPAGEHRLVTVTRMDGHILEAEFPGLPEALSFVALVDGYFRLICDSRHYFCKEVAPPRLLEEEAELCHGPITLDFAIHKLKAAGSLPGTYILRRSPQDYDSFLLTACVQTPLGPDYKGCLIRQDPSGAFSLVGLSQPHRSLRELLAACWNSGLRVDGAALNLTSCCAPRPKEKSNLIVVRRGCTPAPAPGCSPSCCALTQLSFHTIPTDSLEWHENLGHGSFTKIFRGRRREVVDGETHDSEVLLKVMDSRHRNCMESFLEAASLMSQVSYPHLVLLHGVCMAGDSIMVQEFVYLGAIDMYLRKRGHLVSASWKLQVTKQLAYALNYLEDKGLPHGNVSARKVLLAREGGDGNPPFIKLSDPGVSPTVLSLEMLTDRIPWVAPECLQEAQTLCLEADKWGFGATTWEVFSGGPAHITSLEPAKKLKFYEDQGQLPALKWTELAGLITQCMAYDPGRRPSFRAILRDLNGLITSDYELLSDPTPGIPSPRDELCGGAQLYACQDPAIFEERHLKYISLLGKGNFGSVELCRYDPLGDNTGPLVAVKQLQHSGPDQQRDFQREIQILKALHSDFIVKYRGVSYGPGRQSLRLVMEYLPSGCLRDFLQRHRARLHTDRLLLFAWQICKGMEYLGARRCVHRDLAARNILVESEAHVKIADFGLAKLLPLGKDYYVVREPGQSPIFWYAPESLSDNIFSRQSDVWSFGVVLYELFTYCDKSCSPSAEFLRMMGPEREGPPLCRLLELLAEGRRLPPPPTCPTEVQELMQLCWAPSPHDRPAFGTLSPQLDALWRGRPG
PROPERTY_NAME: IC50 (nM)
Numbers only, in nM.

Entry CC[C@@](C)(Nc1ccnc(-c2c[nH]c3ncccc23)n1)C(=O)NCC(F)(F)F [DECERNOTINIB] — recorded IC50 = 50

Source listed as ChEMBL document CHEMBL3297690.
